Values were extracted from PubChem BioAssay.

Molecular target: Torsin-1A-interacting protein 2 (Homo sapiens) (UniProt Q8NFQ8)
Sequence (Q8NFQ8 whole entry, looked up): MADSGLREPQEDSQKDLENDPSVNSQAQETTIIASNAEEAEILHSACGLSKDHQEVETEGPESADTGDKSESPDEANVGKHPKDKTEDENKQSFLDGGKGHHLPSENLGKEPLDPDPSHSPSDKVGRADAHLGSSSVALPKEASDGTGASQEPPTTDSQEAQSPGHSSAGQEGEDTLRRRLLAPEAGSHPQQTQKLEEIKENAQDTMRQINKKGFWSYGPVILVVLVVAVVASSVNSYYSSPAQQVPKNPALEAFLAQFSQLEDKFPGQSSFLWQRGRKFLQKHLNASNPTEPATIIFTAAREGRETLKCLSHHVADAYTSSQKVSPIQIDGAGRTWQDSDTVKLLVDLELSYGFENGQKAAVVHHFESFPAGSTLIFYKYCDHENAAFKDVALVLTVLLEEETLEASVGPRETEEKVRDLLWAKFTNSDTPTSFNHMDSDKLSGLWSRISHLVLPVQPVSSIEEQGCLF
Experiment: small molecules binding lysate-expressed LULL1 – cell lysate, human LULL1 lysate, 635/667 nm fluorescence, primary screen (AID 1092);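 also: score merges per-feature 667 nm fluorescence with signal-to-noise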
Conditions: small-molecule microarray, hLULL1 lysate binding, 635 nm fluorescence; higher = more signal
Could you label it Criterion met if measured composite z-score is 3 or higher, and Criterion not met otherwise?

In: Does the reported composite z-score for "O=C(NC1CC1)[C@@H]1c2ccccc2C(=O)N(Cc2ccc(OC(F)(F)F)cc2)[C@H]1c1ccc(CO)cc1" fall at or above the 3 mark?
Out: Criterion not met

In: Could you tell me if the measured composite z-score of "Cc1ccc(S[C@]2(C(=O)NCc3ccccc3)CC(=O)N(Cc3ccccc3C(F)(F)F)[C@@H]2c2ccc(CO)cc2)cc1" reaches 3 or more?
Out: Criterion not met

In: Is reported composite z-score greater than or equal to 3 here: CN1C(=O)C2C(C1=O)C1C=C(CCCO)C2C(C2CC2)N1Cc1cccc(OC(F)(F)F)c1 (configuration not stated)
Out: Criterion met

In: Test whether the compound "COCCCNC(=O)[C@@]1(Sc2ccc(C)cc2)CC(=O)N(Cc2ccccc2C(F)(F)F)[C@@H]1c1ccc(CO)cc1I" records composite z-score of 3 or higher.
Out: Criterion not met

In: Check this compound for composite z-score at or above 3: "CC(C)NC(=O)[C@@H]1c2ccccc2C(=O)N(Cc2ccc(OC(F)(F)F)cc2)[C@H]1c1ccc(CO)cc1"
Out: Criterion not met

In: Textbook exercise: given the entry "[N-]=[N+]=Nc1ccccc1C[C@]1(C(=O)N2CCOCC2)N=C(c2ccc(OCCCO)cc2)O[C@H]1c1ccccc1N=[N+]=[N-]" , state whether its composite z-score is greater than or equal to 3.
Out: Criterion met

In: Is reported composite z-score greater than or equal to 3 here: "C=C(CCCC)/C(=C/C[C@H](OC(=O)c1ccncc1)c1ccccc1OCCO)c1cc(C(=O)OC)ccc1OC"
Out: Criterion not met

In: Item COC(=O)C1=CC(CCCO)=CC(c2cccs2)N(Cc2cc3c(cc2Br)OCO3)C=C1C(=O)OC (configuration not stated) with composite z-score of 3 or above?
Out: Criterion met

In: Kindly determine if composite z-score recorded for "Cc1ccc(S[C@]2(C(=O)NCC(F)(F)F)CC(=O)N(Cc3ccccc3C(F)(F)F)[C@@H]2c2ccc(CO)cc2)cc1" is above or exactly 3.
Out: Criterion not met

In: Dear colleague, could you confirm whether "COc1cc(CO)cc(I)c1O[C@H]1C=C(C(=O)NCCO)C[C@@H]2O[C@H]12" has composite z-score at or above 3?
Out: Criterion not met

In: Please tell me: is the compound "CCCN1C(=O)[C@@]2(c3ccc([N+](=O)[O-])cc3)CC(=O)N(CC34CC5CC(CC(C5)C3)C4)[C@@H]2c2ccc(CO)cc21" at or over 3 in terms of composite z-score?
Out: Criterion not met

In: Test whether the compound CC1CC/C=C\[C@H]2OC34C=CCN(CCN5CCOCC5)C(=O)[C@H]3N(CCCO)C(=O)[C@@H]4C2C(=O)O1 (some centres not stated) records composite z-score of 3 or higher.
Out: Criterion not met

In: Does composite z-score meet or surpass 3 for "C=C(COC)/C(=C/C[C@@H](OC(C)=O)c1ccccc1OCCO)c1cnc2ccccc2c1" ?
Out: Criterion not met

In: Has "C=CCNC(=O)[C@@H]1[C@H]2C(=O)O[C@H](c3ccccc3)[C@H](c3ccccc3)N2[C@H](c2ccc(OCCO)cc2)[C@@]12C(=O)Nc1ccc(C#CC3(O)CCCCCC3)cc12" a recorded composite z-score greater than or equal to 3?
Out: Criterion not met

In: In plain terms: is recorded composite z-score at least 3 for "COCCOC(=O)N1C(=O)[C@@]2(c3cc(C#CCC(C(=O)OC)C(=O)OC)ccc31)[C@H](c1ccc(O)cc1)N1[C@H](c3ccccc3)[C@H](c3ccccc3)OC(=O)[C@H]1[C@@H]2C(=O)Nc1nc2ccccc2s1" ?
Out: Criterion not met

In: Item C=CCC(OC(C)=O)[C@@H]1[C@@H](N(Cc2cc3ccccc3o2)C(=O)Cc2ccc(OC)cc2)c2cc(OCCCO)ccc2N1C(=O)c1ccc2ccccc2n1 (some centres not stated) with composite z-score of 3 or above?
Out: Criterion not met

In: # bool: composite z-score of C=C(C)[C@@H]1CC=C(C(O)C2C=CC3C(=O)N(C)C(=O)C3N2Nc2ccc([N+](=O)[O-])cc2[N+](=O)[O-])CC1 (some centres not stated) >= 3
Out: Criterion met

In: Assess whether reported composite z-score for [N-]=[N+]=Nc1ccccc1C[C@@]1(C(=O)NCC(O)CO)N=C(c2ccc(OCCCO)cc2)O[C@@H]1c1ccccc1 (some centres not stated) sits at 3 or higher.
Out: Criterion not met

In: composite z-score >= 3 for "C=CCN1C(=O)[C@]2(O[C@H](CCn3cc([C@H](O)c4ccccc4)nn3)[C@@H]([Si](C)(C)c3ccc(OC)cc3)[C@@H]2C)c2cc(NC(=O)c3ccc(OC)cc3)ccc21" ?
Out: Criterion not met

In: Could you tell me if the measured composite z-score of "O=C1[C@H]2C=C(I)[C@H](C[C@@H]2OCCCCCCO)[C@@]12CO2" reaches 3 or more?
Out: Criterion not met

In: Textbook exercise: given the entry "COc1ccc(C(=O)Nc2ccc3c(c2)[C@@]2(O[C@H](CCO)[C@@H]([Si](C)(C)c4ccc(OC)cc4)[C@@H]2C)C(=O)N3Cc2ccccc2)cc1" , state whether its composite z-score is greater than or equal to 3.
Out: Criterion not met

In: Does the compound "COc1ccc([Si](C)(C)[C@@H]2[C@@H](CC(=O)N(CCO)Cc3ccccc3)O[C@]3(C(=O)N(Cc4ccc(N5C(=O)c6cccc7cccc5c67)cc4)c4ccccc43)[C@H]2C)cc1" have recorded composite z-score that is 3 or more?
Out: Criterion not met

In: Decide: is the reported value of composite z-score for C=CCC(OC(C)=O)[C@@H]1[C@@H](N(Cc2ccc(-c3cccc(C(F)(F)F)c3)o2)C(=O)c2ccc(-c3ccccc3)cc2)c2cc(OCCCO)ccc2N1C(=O)c1ccc2ccccc2c1 (some centres not stated) equal to or greater than 3?
Out: Criterion not met

In: Dear colleague, could you confirm whether COc1ccc(C(O)C2C=CC3C(=O)N(c4ccccc4)C(=O)C3N2Nc2ccc([N+](=O)[O-])cc2)c2ccccc12 (configuration not stated) has composite z-score at or above 3?
Out: Criterion met

In: # check: composite z-score of "CCCC[C@H]1OB(O)C[C@H]2C1=C(COc1ccccc1)C[C@H]1C(=O)C=CC(=O)[C@H]12" is greater than or equal to 3
Out: Criterion not met
